Answer each item with its documented pKi.
molecular target: Neuronal acetylcholine receptor; alpha4/beta2 (Rattus norvegicus, UniProt P09483+P12390); experiment: Displacement of [3H]epibatidine from rat alpha-4-beta-2 nACHR expressed in human HEK293 cells at 10 uM; format: cell-based
Sequence (P09483 whole entry): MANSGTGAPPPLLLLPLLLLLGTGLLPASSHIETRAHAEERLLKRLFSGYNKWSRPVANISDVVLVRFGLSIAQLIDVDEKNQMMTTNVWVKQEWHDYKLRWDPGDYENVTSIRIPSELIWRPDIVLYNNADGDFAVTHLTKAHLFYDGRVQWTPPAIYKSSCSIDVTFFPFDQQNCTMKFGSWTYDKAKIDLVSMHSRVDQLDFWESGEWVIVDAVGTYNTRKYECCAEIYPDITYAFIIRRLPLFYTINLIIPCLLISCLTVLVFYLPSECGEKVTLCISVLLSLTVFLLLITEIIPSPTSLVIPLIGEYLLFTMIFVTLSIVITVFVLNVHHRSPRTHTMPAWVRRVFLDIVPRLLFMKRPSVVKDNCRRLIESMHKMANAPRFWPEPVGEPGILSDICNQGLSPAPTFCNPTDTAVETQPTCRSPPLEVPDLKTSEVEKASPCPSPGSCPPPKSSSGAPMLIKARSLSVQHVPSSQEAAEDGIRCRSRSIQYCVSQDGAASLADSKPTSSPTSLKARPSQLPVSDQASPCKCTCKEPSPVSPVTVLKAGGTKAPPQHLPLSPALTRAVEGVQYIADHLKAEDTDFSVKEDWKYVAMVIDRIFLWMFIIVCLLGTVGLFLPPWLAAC
Sequence (P12390 whole entry): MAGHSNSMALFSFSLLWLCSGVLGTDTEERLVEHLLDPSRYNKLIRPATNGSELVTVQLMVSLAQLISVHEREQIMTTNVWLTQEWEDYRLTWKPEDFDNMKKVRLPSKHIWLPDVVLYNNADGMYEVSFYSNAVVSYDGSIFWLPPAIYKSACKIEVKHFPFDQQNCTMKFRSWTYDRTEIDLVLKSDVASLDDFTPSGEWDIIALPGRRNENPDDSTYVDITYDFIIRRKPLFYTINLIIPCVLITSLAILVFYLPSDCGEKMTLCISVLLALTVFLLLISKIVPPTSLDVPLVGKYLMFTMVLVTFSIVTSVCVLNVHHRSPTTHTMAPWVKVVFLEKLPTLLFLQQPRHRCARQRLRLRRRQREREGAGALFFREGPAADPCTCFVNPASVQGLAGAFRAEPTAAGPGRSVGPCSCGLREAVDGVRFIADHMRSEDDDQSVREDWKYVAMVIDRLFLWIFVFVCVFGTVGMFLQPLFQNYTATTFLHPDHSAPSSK
Numbers only, as −log10 of the molar value.

Field: example entries. Status: answers known.
>>> df
                                   compound  experimental_value
0                       O=c1ccccn1CC1CCNCC1                5.80
1            O=c1ccccn1CC1CCN(Cc2ccccc2)CC1                5.89
2    O=c1ccccn1CC1CCCNC1 (stereo not given)                5.75
3  CN1CCCC(Cn2ccccc2=O)C1 (stereo not given)                6.01

Now for the compound whose pKi we want.
Summary for this compound, O=c1ccccn1CC1CCCN(Cc2ccccc2)C1 (stereo not given) : pKi is 6.27

###

target: Neuronal acetylcholine receptor; alpha2/beta4 (Rattus norvegicus, UniProt P12389+P12392); assay: Displacement of [3H]epibatidine from rat alpha-2-beta-4 nACHR expressed in human HEK293 cells at 10 uM; type: cell-based
Sequence (P12389 whole entry): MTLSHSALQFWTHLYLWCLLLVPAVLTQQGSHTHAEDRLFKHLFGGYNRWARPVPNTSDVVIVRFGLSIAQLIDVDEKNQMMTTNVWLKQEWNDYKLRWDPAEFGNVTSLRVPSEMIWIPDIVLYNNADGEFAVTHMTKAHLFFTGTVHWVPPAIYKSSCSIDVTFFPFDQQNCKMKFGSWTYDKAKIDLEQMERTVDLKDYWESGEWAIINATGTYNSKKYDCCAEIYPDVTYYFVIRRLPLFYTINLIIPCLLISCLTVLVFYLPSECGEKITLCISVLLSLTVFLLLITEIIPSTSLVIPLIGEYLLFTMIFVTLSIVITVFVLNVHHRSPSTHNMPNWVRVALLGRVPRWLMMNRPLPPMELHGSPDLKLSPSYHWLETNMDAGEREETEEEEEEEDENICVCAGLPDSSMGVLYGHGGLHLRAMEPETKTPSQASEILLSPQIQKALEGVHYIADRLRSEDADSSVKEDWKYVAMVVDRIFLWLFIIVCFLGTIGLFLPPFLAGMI
Sequence (P12392 whole entry): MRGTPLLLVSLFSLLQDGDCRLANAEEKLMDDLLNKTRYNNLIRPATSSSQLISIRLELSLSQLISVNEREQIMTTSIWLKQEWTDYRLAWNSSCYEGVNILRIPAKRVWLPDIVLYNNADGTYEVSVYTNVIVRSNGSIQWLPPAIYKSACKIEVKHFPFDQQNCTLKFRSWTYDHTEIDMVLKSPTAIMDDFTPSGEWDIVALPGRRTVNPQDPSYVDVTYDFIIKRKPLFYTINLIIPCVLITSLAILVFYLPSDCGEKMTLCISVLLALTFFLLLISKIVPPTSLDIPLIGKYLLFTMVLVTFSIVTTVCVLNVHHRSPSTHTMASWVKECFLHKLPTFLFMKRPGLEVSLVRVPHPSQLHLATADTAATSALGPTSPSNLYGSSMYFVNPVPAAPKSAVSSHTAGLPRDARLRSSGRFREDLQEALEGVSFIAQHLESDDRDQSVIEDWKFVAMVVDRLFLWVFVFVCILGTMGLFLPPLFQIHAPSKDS
Answer each item with its documented Ki.
One number for each entry, in µM.

Field: example entries. Status: answers known.
In [3]: df
Out[3]:
                                   compound  experimental_value
0  CN1CCCC(Cn2ccccc2=O)C1 (stereo not given)                 180
1                       O=c1ccccn1CC1CCNCC1                  80
2  O=c1ccccn1CC1CCCN(Cc2ccccc2)C1 (stereo not given)                  91
3            O=c1ccccn1CC1CCN(Cc2ccccc2)CC1                 440

Now for the compound whose Ki we want.
Summary for this compound, O=c1ccccn1CC1CCCNC1 (stereo not given) : Ki is 159
